Where do the numbers come from? From patent US20090176711A1.

System: cleavage of Substrate M by β-secretase
Procedure summary: Inhibition of cleavage of Substrate M by β-secretase by complementary and deletion peptides (Examples 1, 5, 6; assay format not stated)
Format: biochemical
Conditions: various concentrations, Substrate M (FIG. 8)
No end group written: not given here.
Endpoint name: concentration dependent inhibitory activity, activity group

Substance | Result
FCIQIHF (also: cyclic, mode of cyclisation not given here) [c-Sub M ΔN2C1] | most active group
EFCIQIHF [c-Sub M ΔN1C1] | most active group
SEFCIQI (also: cyclic, mode of cyclisation not given here) [c-SubM ΔC3] | most active group
SEFCIQIHFR-NH2 [c-Sub M, SEFCIQIHFR] | less activity

Tell me concentration dependent inhibitory activity, activity group reported for CIQIHF (also: cyclic, mode of cyclisation not given here) [c-Sub M ΔN3C1]
less activity

---

Tested on: cleavage of Substrate M by β-secretase
Procedure summary: Inhibition of cleavage of Substrate M by β-secretase by complementary and deletion peptides (Examples 1, 5, 6; assay format not stated)
Type: biochemical
Conditions: FIG. 4
No end group written: not given here.
Endpoint name: inhibition of cleavage of Substrate M by β-secretase

Substance | Result
RLHFYLRLKA [Sub W-c] | do not inhibit cleavage
SEFCIQIHFR-NH2 [c-Sub M, SEFCIQIHFR] | inhibit cleavage
RLHLDLRLKA [Sub M-c] | do not inhibit cleavage
SEFCIHLHFR (also: cyclic, mode of cyclisation not given here) [c-Sub W] | inhibit cleavage
